Consider the following compounds and their measured NADPH fluorescence slope readings.
# target_or_test_system: Voltage-gated potassium channel subunit beta-2 (Rattus norvegicus) (UniProt P62483)
# Sequence (P62483 whole entry, looked up): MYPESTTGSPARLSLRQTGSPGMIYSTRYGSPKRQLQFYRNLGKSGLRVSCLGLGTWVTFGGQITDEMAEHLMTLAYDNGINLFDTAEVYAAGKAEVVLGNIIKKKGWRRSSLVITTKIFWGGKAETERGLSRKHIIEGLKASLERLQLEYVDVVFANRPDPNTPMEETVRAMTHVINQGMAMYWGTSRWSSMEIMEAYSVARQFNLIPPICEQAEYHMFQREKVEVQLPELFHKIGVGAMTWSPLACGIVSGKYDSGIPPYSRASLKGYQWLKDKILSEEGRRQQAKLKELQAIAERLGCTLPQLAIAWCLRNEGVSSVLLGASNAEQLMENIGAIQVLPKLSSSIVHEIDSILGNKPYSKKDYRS
# protocol_summary: KvBeta positive modulators, primary screen, biochemical, NADPH fluorescence (AID 623);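 note: fluorescence intensity change per second fitted from 20 to 320 s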
# particulars: Recombinant KvBeta, NADPH fluorescence decrease slope, 10 min; at 10 µM; stronger effect = lower value
Lab note: write the figure by itself, no unit.

Some solved cases for reference:
>>> val("CCOC(=O)c1c(NC(=O)CN2CCOCC2)sc2c1CC(C)(C)OC2")
"-4.6e-05"
>>> val("Cc1ccccc1-n1c(SCc2c(C)noc2C)nnc1-c1ccncc1")
"-5.4e-05"
>>> val("COc1cccc(Oc2cn[nH]c2-c2ccc(O)cc2O)c1")
"4.8e-05"
>>> val("Cc1cccc(Cn2c(SCCN3CCCCC3)nc3c2c(=O)[nH]c(=O)n3C)c1")
"3.2e-05"
>>> val("C[N+]1(CCNC(=O)/C=N/O)CCCCC1")
"-2.5e-05"
>>> val("N#Cc1c(N)n(CCOC(=O)c2ccc(Cl)cc2)c2nc3ccccc3nc12")
"-7.1e-06"

Problem: NADPH fluorescence slope lookup needed for `CC(C)OCCCn1c(=N)c(C(N)=S)cc2c(=O)n3ccccc3nc21` , thanks.
Solution: -4.1e-05

Problem: NADPH fluorescence slope lookup needed for `CC(C)NCc1c(O)c(Br)cc2oc3c(c12)CCCC3` , thanks.
Solution: -1.1e-05

Problem: NADPH fluorescence slope lookup needed for `CCOc1ccc(NC(=O)c2nn(C)cc2Br)cc1` , thanks.
Solution: -6.1e-05

* * *

# target_or_test_system: Voltage-gated potassium channel subunit beta-2 (Rattus norvegicus) (UniProt P62483)
# protocol_summary: KvBeta positive modulators, primary screen, biochemical, NADPH fluorescence (AID 623);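 note: fluorescence intensity change per second fitted from 20 to 320 s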
# particulars: Recombinant KvBeta, NADPH fluorescence decrease slope, 10 min; at 10 µM; stronger effect = lower value
Consider the following compounds and their measured NADPH fluorescence slope readings.
Lab note: write the figure by itself, no unit.

>>> val("COc1cc(NC(=O)C2C3C=CC(C3)C2C(=O)O)c(OC)cc1Cl (stereo not given)")
"-6.5e-06"
>>> val("COc1ccc(S(=O)(=O)N2CCCC2C(=O)Nc2ccc(C)cc2)cc1 (stereo not given)")
"-5.1e-05"
>>> val("CCn1c(C)cc(=S)c2ccccc21")
"-2.2e-05"

Problem: NADPH fluorescence slope lookup needed for `COC(=O)c1cc(Br)c(=O)n(-c2cc(C)on2)c1` , thanks.
Solution: -1.4e-05

Problem: NADPH fluorescence slope lookup needed for CCOC(=O)C1=C(C)Nc2nnnn2C1c1c[nH]c2ccccc12 (stereo not given) , thanks.
Solution: -1.2e-05

* * *

# target_or_test_system: Voltage-gated potassium channel subunit beta-2 (Rattus norvegicus)
# protocol_summary: KvBeta enzyme negative modulators, primary screen, biochemical, NADPH fluorescence (AID 622);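 note: slope of raw intensity against log time taken from 70 to 1610 s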
# particulars: recombinant KvBeta, 4-cyanobenzaldehyde reduction, at 10 µM
Calls of active or inactive are those of the source.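 The calls were made as follows: active = fluorescence slope higher than the sample average by over 3 SD (cut at about -0.22 in these data, passing the limit was not always enough); inactive = the rest.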
Use one of these outcomes when replying: active, inactive

Examples from the recorded data:
>>> group("COCCn1c(SCC(=O)Nc2sc(C)c(C)c2C#N)nnc1C(C)C")
"inactive"
>>> group("COc1ccccc1CNC(=O)N[C@@H](Cc1ccccc1)C(=O)O")
"inactive"
>>> group("COc1ccc(/C(O)=C2\\C(=O)C(=O)N(c3cc(C)on3)C2c2ccccc2OC)cc1C (stereo not drawn)")
"inactive"

Problem: Tell me the recorded outcome of this test for `CCC(=O)Nc1cccc(-c2nnc(SCC(=O)NCc3ccco3)n2C)c1` .
Solution: inactive

Problem: Tell me the recorded outcome of this test for `COc1cccc(Nc2cc(C)nc3ccccc23)c1` .
Solution: inactive

Problem: Tell me the recorded outcome of this test for CC(C)C(c1nnnn1C1CCCC1)N1CCCc2ccccc21 (stereo not drawn) .
Solution: inactive

Problem: Tell me the recorded outcome of this test for CCOC(=O)C1=C(N)n2c(s/c(=C\c3cccnc3)c2=O)=C(C(=O)OC)C1c1cccnc1 (stereo not drawn) .
Solution: inactive

Problem: Tell me the recorded outcome of this test for `CCc1cc(=O)oc2cc(C)c(CN3CCCC3)c(O)c12` .
Solution: inactive

Problem: Tell me the recorded outcome of this test for `N#Cc1nc(-c2ccc(F)cc2)oc1N1CCCC1` .
Solution: inactive

Problem: Tell me the recorded outcome of this test for `CCc1cc(=O)oc2cc(OC(C)=O)cc(OC(C)=O)c12` .
Solution: active

Problem: Tell me the recorded outcome of this test for COc1ccc(C2CC(c3ccc(Cl)cc3Cl)Nc3nc(N)nn32)cc1 (stereo not drawn) .
Solution: inactive

Problem: Tell me the recorded outcome of this test for `N#Cc1nc(-c2ccccc2Cl)oc1N1CCOCC1` .
Solution: inactive

Problem: Tell me the recorded outcome of this test for `CC(=O)Nc1cccc(Oc2nc(C)cc(C)c2C#N)c1` .
Solution: inactive

* * *

# protocol_summary: DUSP6 inhibitors restoring Erk phosphorylation by chemical complementation, primary imaging in DUSP6-transfected HeLa (AID 609)
# particulars: HeLa MKP-3 transfected, phospho-Erk imaging KS statistic; measured here: cell density z-score; at 10 µM; cells stimulated with TPA for 15 min
Classification by z-score | ranges: low interval = under -0.9, middle interval = from -0.9 up to 0.04, high interval = 0.04 and over

Examples from the recorded data:
>>> group("CSc1nc2sc3c(c2c2nnnn12)CCCC3")
"high interval"
>>> group("CC(C)Cc1nc(N2CCN(C(=O)Cc3ccccc3)CC2)c(C#N)c2c1COC(C)(C)C2")
"middle interval"
>>> group("COc1ccc(CN(C)CCc2ccccn2)c(OC)c1OC")
"low interval"
>>> group("Brc1ccc2c(c1)CNc1c(ncnc1N1CCOCC1)O2")
"low interval"
>>> group("COC(=O)c1sc(NC(=O)c2oc3ccccc3c2C)nc1C")
"high interval"
>>> group("COC(=O)Sc1nc(N2CCOCC2)c2c(c1C#N)CC(C)(C)OC2")
"high interval"

Next compound, please.
Problem: Into which category would you place `C/C(=N\O)C(=O)NCCCn1ccnc1` ?
Solution: middle interval

* * *

# target_or_test_system: Voltage-gated potassium channel subunit beta-2 (Rattus norvegicus) (UniProt P62483)
# protocol_summary: KvBeta enzyme negative modulators, primary screen, biochemical, NADPH fluorescence (AID 622);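 note: slope of raw intensity against log time taken from 70 to 1610 s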
# particulars: recombinant KvBeta, 4-cyanobenzaldehyde reduction, at 10 µM, stronger effect = higher value
Consider the following compounds and their measured fluorescence slope readings.
Lab note: write the figure by itself, no unit.

>>> val("CCOC(=O)c1ccc(N2C(=O)CC(NC3CCN(C(=O)c4ccc(F)cc4)CC3)C2=O)cc1 (stereo not drawn)")
-0.416

Problem: fluorescence slope lookup needed for C=CCSc1nnc(NC(=O)c2ccc(S(=O)(=O)NCC3CCCO3)cc2)s1 (stereo not drawn) , thanks.
Solution: -0.496

Problem: fluorescence slope lookup needed for CCN(CC)CCN1C(=O)C(=O)/C(=C(/O)c2c(C)[nH]c(C(=O)OC)c2C)C1c1cccc(OC)c1 (stereo not drawn) , thanks.
Solution: -0.445

Problem: fluorescence slope lookup needed for `CC(C)OCCCn1c(=N)c(C(N)=S)cc2c(=O)n3ccccc3nc21` , thanks.
Solution: -0.454

Problem: fluorescence slope lookup needed for NC(=O)C(Cc1ccccc1)NS(=O)(=O)c1ccc(N2CCCC2=O)cc1 (stereo not drawn) , thanks.
Solution: -0.585

Problem: fluorescence slope lookup needed for `COc1cccc(C(=O)N2CCN(Cc3ccccn3)CC2)c1OC` , thanks.
Solution: -0.466

Problem: fluorescence slope lookup needed for `CC(=O)Nn1c(C)nnc1-n1nc(C)cc1C` , thanks.
Solution: -0.474

Problem: fluorescence slope lookup needed for Cc1ccc(N(CN2C(=O)C3CC=CCC3C2=O)C(=O)c2ccco2)cc1Cl (stereo not drawn) , thanks.
Solution: -0.453

* * *

# target_or_test_system: Voltage-gated potassium channel subunit beta-2 (Rattus norvegicus) (UniProt P62483)
# protocol_summary: KvBeta positive modulators, primary screen, biochemical, NADPH fluorescence (AID 623);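 note: fluorescence intensity change per second fitted from 20 to 320 s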
# particulars: Recombinant KvBeta, NADPH fluorescence decrease slope, 10 min; at 10 µM; stronger effect = lower value
parameter_measured: NADPH fluorescence slope
Lab note: write the figure by itself, no unit.

Some solved cases for reference:
>>> val("Cc1ccc2cc(CNC(C)C)c(=O)[nH]c2c1")
"-2.7e-05"
>>> val("NC(=O)/C(=N\\O)c1ccccc1")
"-5.1e-05"
>>> val("O=C(c1ccccc1Oc1nnnn1-c1ccccc1)N1CCOCC1")
"2e-05"

Problem: NADPH fluorescence slope lookup needed for `CC(C)COc1ccc(C(=O)OCCN2CCOCC2)c(O)c1` , thanks.
Solution: -3.7e-07

Problem: NADPH fluorescence slope lookup needed for CCCCC(CCC(=O)Nc1ccc(C(=O)OCC)cc1)C(=O)O (stereo not given) , thanks.
Solution: -0.000129

Problem: NADPH fluorescence slope lookup needed for `CCn1c(SCC(=O)Nc2ccc3c(c2)OCO3)nnc1-c1ccccc1O` , thanks.
Solution: -5.6e-05

Problem: NADPH fluorescence slope lookup needed for `COc1ccc(OC)c(S(=O)(=O)N2CCC(C(=O)NCc3ccccc3OC)CC2)c1` , thanks.
Solution: -1.4e-05

Problem: NADPH fluorescence slope lookup needed for `CCc1nnc(NC(=O)COC(=O)CN2C(=O)c3ccccc3C2=O)s1` , thanks.
Solution: -4.4e-05

Problem: NADPH fluorescence slope lookup needed for `Cc1nnc(SCC(=O)Nc2cc(C(F)(F)F)ccc2N2CCOCC2)o1` , thanks.
Solution: -3.9e-07

Problem: NADPH fluorescence slope lookup needed for O=C1CC(C(=O)O)c2ccccc2N1 (stereo not given) , thanks.
Solution: -0.000133

Problem: NADPH fluorescence slope lookup needed for `CCOC(=O)CCNc1n[nH]c(=O)[nH]c1=O` , thanks.
Solution: -1.9e-05
